tested on: human hepatocytes; test: Hepatocyte intrinsic clearance assay, human hepatocytes; assay type: in vitro ADME; details: Human Hepatocytes, well stirred liver model, fu=1
quantityKind: EH (%) hepatic extraction ratio
Give just the number in %; leave the unit off.

Fill in the recorded EH (%) hepatic extraction ratio for this compound, with human hepatocytes as test system: COC(=O)c1csc(C(=O)c2c[nH]c3ccc(F)cc23)n1
92

Enter reported EH (%) hepatic extraction ratio observed with human hepatocytes for Nc1nnc(-c2csc(C(=O)c3c[nH]c4ccccc34)n2)o1
12

What measured EH (%) hepatic extraction ratio is associated with Nc1nnc(-c2csc(C(=O)c3c[nH]c4ccc(F)cc34)n2)o1 on human hepatocytes?
23

Form field - read-out: EH (%) hepatic extraction ratio; system: human hepatocytes; submitted item: Nc1nnc(-c2csc(C(=O)c3c[nH]c4c(F)cccc34)n2)o1
8.4

Identify the measured EH (%) hepatic extraction ratio of COC(=O)c1csc(C(=O)c2c[nH]c3ccccc23)n1 for human hepatocytes.
91

Hello, I am looking for reported EH (%) hepatic extraction ratio with human hepatocytes for NCc1nnc(-c2csc(C(=O)c3c[nH]c4c(F)cccc34)n2)o1 . Could you help?
33

Form: Entry = O=C(c1nc(-c2nnco2)cs1)c1c[nH]c2ccccc12 | System = human hepatocytes | EH (%) hepatic extraction ratio = ____
68

Hi! What's the reported EH (%) hepatic extraction ratio for CCC(=O)c1csc(C(=O)c2c[nH]c3cccc(F)c23)n1 on human hepatocytes?
50

###

Test system: CYP1A1 in mouse Hepal-6 cells
Assay: EROD assay (7-ethoxy-resorufin-O-deethylase), mouse Hepa1-6 cells
Format: cell-based
Conditions: EROD assay, 20 hours treatment
Experimental: CYP1A1 induction is under the control of the AhR signaling pathway. This Example describes an in vitro assay (7-ethoxy-resorufin-O-deethylase (EROD) assay) that evaluated the AhR modulating activities of the indole compounds described herein. […] The activity of CYP1A1 in the cells was measured by the conversion of substrate 7-ethoxyresorufin, with the readout being a fluorescence signal associated with the conversion product. […]
For each record, write down the corresponding EC50.

Which EC50 value belongs to CCC(=O)c1csc(C(=O)c2c[nH]c3cccc(F)c23)n1 ?
12.8 nM

Using the record for CCC(=O)c1csc(C(=O)c2c[nH]c3cc(F)c(F)cc23)n1 , report its EC50.
0.6 nM

Find the recorded EC50 belonging to CCC(=O)c1csc(C(=O)c2c[nH]c3c(F)cccc23)n1 and report it.
19.5 nM

What does the record list as EC50 for CCC(=O)c1csc(C(=O)c2c[nH]c3ccc(F)cc23)n1 ?
5.8 nM

Endpoint output: EC50 of COC(=O)c1csc(C(=O)c2c[nH]c3ccccc23)n1 . Value?
64 nM

Quick check: EC50 of CCC(=O)c1csc(C(=O)c2c[nH]c3cc(F)ccc23)n1 ?
2.3 nM

###

assay: Hepatocyte intrinsic clearance assay, human hepatocytes; assay type: in vitro ADME; conditions: male, cryopreserved pooled human hepatocytes; Human Hepatocytes, 1 μM test compound
For each entry below, report its half-life at 1 μM value.
Give the value in h but do not write h after it.

Dear colleague, I am looking for the recorded half-life at 1 μM of the following molecule: COC(=O)c1csc(C(=O)c2c[nH]c3ccc(F)cc23)n1
0.117

Which half-life at 1 μM value is on record for NCc1nnc(-c2csc(C(=O)c3c[nH]c4c(F)cccc34)n2)o1 ?
2.83

So what's the measured half-life at 1 μM for this one? Nc1nnc(-c2csc(C(=O)c3c[nH]c4ccc(F)cc34)n2)o1
4.7

Please look up its half-life at 1 μM: Cc1nnc(-c2csc(C(=O)c3c[nH]c4ccccc34)n2)o1
4.55

Requested field: half-life at 1 μM. Item: CCC(=O)c1csc(C(=O)c2c[nH]c3cc(F)c(F)cc23)n1
2.2

Item under review: Cc1noc(-c2csc(C(=O)c3c[nH]c4ccccc34)n2)n1 . Reported half-life at 1 μM?
16.1

Query (molecule): CCC(=O)c1csc(C(=O)c2c[nH]c3cc(F)ccc23)n1 ; field requested: half-life at 1 μM
2.57

Would you kindly share the measured half-life at 1 μM for Nc1nnc(-c2csc(C(=O)c3c[nH]c4c(F)cccc34)n2)o1 ?
15.4

Look up half-life at 1 μM for this molecule: CNC(=O)c1csc(C(=O)c2c[nH]c3ccc(Cl)cc23)n1
3.88

Need half-life at 1 μM of Nc1nnc(-c2csc(C(=O)c3c[nH]c4ccccc34)n2)o1 , thanks.
10.8

What half-life at 1 μM value was documented for this molecule, Cc1nc(-c2csc(C(=O)c3c[nH]c4ccccc34)n2)no1 ?
6.31

Would you mind telling me what half-life at 1 μM value was observed for NCc1nc(-c2csc(C(=O)c3c[nH]c4c(F)cccc34)n2)no1 ?
6.23

Which measured half-life at 1 μM value corresponds to Nc1nnc(-c2csc(C(=O)c3c[nH]c4ccccc34)n2)s1 ?
2.19

Consider the molecule CNC(=O)c1csc(C(=O)c2c[nH]c3ccc(F)cc23)n1 and give its measured half-life at 1 μM.
1.52

Recorded half-life at 1 μM for Nc1nnc(-c2csc(C(=O)c3c[nH]c4cc(Cl)c(Cl)cc34)n2)o1 , please?
15.3

What does the record list as half-life at 1 μM for CCC(=O)c1csc(C(=O)c2c[nH]c3ccc(Cl)cc23)n1 ?
5

Entry CCC(=O)c1csc(C(=O)c2c[nH]c3ccc(F)cc23)n1 has what half-life at 1 μM?
1.91

Endpoint output: half-life at 1 μM of O=C(c1nc(-c2nnco2)cs1)c1c[nH]c2ccccc12 . Value?
0.653

###

system: mouse hepatocytes; assay: Hepatocyte intrinsic clearance assay, mouse hepatocytes; format: in vitro ADME; settings: Mouse Hepatocytes, well stirred liver model, fu=1
EH (%) hepatic extraction ratio strictly less than 60% = Yes. Otherwise No.

Identify whether the compound CCC(=O)c1csc(C(=O)c2c[nH]c3ccc(F)cc23)n1 records EH (%) hepatic extraction ratio below 60%.
Yes

Please determine if Cc1nc(-c2csc(C(=O)c3c[nH]c4ccccc34)n2)no1 is below 60% in terms of EH (%) hepatic extraction ratio.
No

A record lists CNC(=O)c1csc(C(=O)c2c[nH]c3ccccc23)n1 . Is its EH (%) hepatic extraction ratio below 60%?
No

Criterion: EH (%) hepatic extraction ratio strictly below 60%. Is it met by CCC(=O)c1csc(C(=O)c2c[nH]c3cccc(F)c23)n1 ?
Yes

Could you please tell me whether EH (%) hepatic extraction ratio recorded for Nc1nnc(-c2csc(C(=O)c3c[nH]c4cc(Cl)c(Cl)cc34)n2)o1 is less than 60%?
Yes

is_below(EH (%) hepatic extraction ratio, 60%) for CCC(=O)c1csc(C(=O)c2c[nH]c3cc(F)c(F)cc23)n1 ?
Yes

I'd appreciate it if you could check whether COC(=O)c1csc(C(=O)c2c[nH]c3ccc(F)cc23)n1 has EH (%) hepatic extraction ratio smaller than 60%.
No

A record lists Cc1noc(-c2csc(C(=O)c3c[nH]c4ccccc34)n2)n1 . Is its EH (%) hepatic extraction ratio below 60%?
Yes

Is it true that EH (%) hepatic extraction ratio reported for CCC(=O)c1csc(C(=O)c2c[nH]c3c(F)cccc23)n1 is less than 60%?
Yes

###

system: IL-21 secretion from human CD4+ T cells; experiment: Suppression of IL-21 secretion by activated Th17 cells (ALPHALISA); format: cell-based; details: human CD4+ T cells
quantityKind: potency in suppressing IL-21 secretion, in words

// returns reported potency in suppressing IL-21 secretion, in words for input Cc1nc(-c2csc(C(=O)c3c[nH]c4ccccc34)n2)no1 [ARI-030]
among the least potent

Dear colleague, I am looking for the recorded potency in suppressing IL-21 secretion, in words of the following compound: Cc1noc(-c2csc(C(=O)c3c[nH]c4ccccc34)n2)n1 [ARI-031]
among the least potent

###

test: In vivo pharmacokinetic study in Sprague-Dawley rats; conditions: rat, IV
quantityKind: IV PK profile compared to ARI-001, ARI-002, and ARI-004, in words

Bench note: what IV PK profile compared to ARI-001, ARI-002, and ARI-004, in words did Cc1nc(-c2csc(C(=O)c3c[nH]c4ccccc34)n2)no1 show?
improved IV PK profiles

What does the record list as IV PK profile compared to ARI-001, ARI-002, and ARI-004, in words for Cc1noc(-c2csc(C(=O)c3c[nH]c4ccccc34)n2)n1 ?
improved IV PK profiles

Item under review: Nc1nnc(-c2csc(C(=O)c3c[nH]c4c(F)cccc34)n2)o1 . Reported IV PK profile compared to ARI-001, ARI-002, and ARI-004, in words?
improved IV PK profiles

Which IV PK profile compared to ARI-001, ARI-002, and ARI-004, in words is reported for this compound? Nc1nnc(-c2csc(C(=O)c3c[nH]c4ccccc34)n2)o1
improved IV PK profiles
